# subjectOfTest: Glutamate receptor ionotropic, AMPA (Rattus norvegicus, UniProt P19490+P19491+P19492+P19493)
# protocolDescription: Effective concentration of AMPA required to increase specific binding of [3H]6 to rat cerebral cortical membranes.
pEC50: −log10 of the molar value.

| molecule | pEC50 |
| --- | --- |
| CC(CNS(=O)(=O)C(C)C)c1ccc(NC(=O)c2ccccc2)cc1 (stereo unspecified) | 5.26 |
